Source of measurements: paper PMC8151276

Give NanoBRET Fold Response for every item shown.
Molecular target: NTSR1 (Homo sapiens, UniProt P30989)
Construct: purchased Promega (in-house HiBiT-GPCR construct library, NanoBRET)
Sequence (P30989 whole entry): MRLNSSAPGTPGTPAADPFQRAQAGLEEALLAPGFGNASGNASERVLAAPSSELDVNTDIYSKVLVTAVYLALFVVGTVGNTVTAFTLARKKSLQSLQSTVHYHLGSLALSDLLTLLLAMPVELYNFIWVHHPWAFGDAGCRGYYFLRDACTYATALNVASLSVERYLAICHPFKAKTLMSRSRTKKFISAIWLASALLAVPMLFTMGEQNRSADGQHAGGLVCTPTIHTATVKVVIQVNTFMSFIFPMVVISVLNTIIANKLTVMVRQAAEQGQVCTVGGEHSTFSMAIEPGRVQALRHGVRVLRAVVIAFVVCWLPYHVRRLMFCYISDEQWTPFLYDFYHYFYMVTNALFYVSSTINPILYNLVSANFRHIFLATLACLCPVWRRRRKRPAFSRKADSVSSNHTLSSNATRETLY
Assay: NanoBRET screen HiBiT-NTSR1 in HEK293
Assay type: binding
Conditions: NTSR1; tracer 1μM
Reply with the value as a number alone.

`CC(C)N(CC[C@H](c1ccccc1)c1cc(CCNC(=O)c2ccc(CNC(=O)CCc3ccc4n3[B-](F)(F)[N+]3=C(c5ccc[nH]5)C=CC3=C4)cc2)ccc1O)C(C)C` has a reported NanoBRET Fold Response of 1.03

Per the records, this compound ( `CCCn1c(=O)c2[nH]c(-c3ccc(OCC(=O)NCCNC(=O)CCOCCNC(=O)c4ccc(CNC(=O)CCc5ccc6n5[B-](F)(F)[N+]5=C(c7ccc[nH]7)C=CC5=C6)cc4)cc3)nc2n(CCC)c1=O` ) has NanoBRET Fold Response equal to 1.02

Field NanoBRET Fold Response (entry Cc1nc2n(c(=O)c1CCN1CCC(c3noc4cc(F)ccc34)CC1)CCCC2OC(=O)NCCOCCOCCOCCOCCNC(=O)CCc1ccc2n1[B-](F)(F)[N+]1=C(c3ccc[nH]3)C=CC1=C2 (stereo not shown) ) reads 0.98

Given item `O=C(CCOCCOCCOCCOCCNC(=O)CCc1ccc2n1[B-](F)(F)[N+]1=C(c3ccc[nH]3)C=CC1=C2)NCCCN1CCN(C2=Nc3ccccc3Oc3ccc(Cl)cc32)CC1` , the value recorded as its NanoBRET Fold Response is 1.08

Query `Cc1cc2c(s1)Nc1ccccc1N=C2N1CCN(CCCNC(=O)CCOCCOCCOCCOCCNC(=O)CCc2ccc3n2[B-](F)(F)[N+]2=C(c4ccc[nH]4)C=CC2=C3)CC1` yields NanoBRET Fold Response of 1.02

`N#CN=C(NCCCOc1cccc(CN2CCCCC2)c1)NCCNC(=O)CCOCCOCCOCCOCCNC(=O)CCc1ccc2n1[B-](F)(F)[N+]1=C(c3ccc[nH]3)C=CC1=C2` yielded NanoBRET Fold Response of 1.03

// `COc1ccccc1N1CCN(CCCCN2C(=O)c3ccc(CNC(=O)CCOCCNC(=O)c4ccc(CNC(=O)CCc5ccc6n5[B-](F)(F)[N+]5=C(c7ccc[nH]7)C=CC5=C6)cc4)cc3C2=O)CC1` : NanoBRET Fold Response value = 0.99

Sample O=C(CCc1ccc2n1[B-](F)(F)[N+]1=C(c3ccc[nH]3)C=CC1=C2)NCc1ccc(C(=O)NCCOCCC(=O)N[C@@H]2CC[C@@]3(O)[C@H]4Cc5ccc(O)c6c5[C@@]3(CCN4CC3CC3)[C@H]2O6)cc1 [Naltrexone-3-NB590] ; NanoBRET Fold Response observed: 0.93

Short answer for `CC(C)N(CC[C@H](c1ccccc1)c1cc(CCNC(=O)CCOCCOCCOCCOCCNC(=O)CCc2ccc3n2[B-](F)(F)[N+]2=C(c4ccc[nH]4)C=CC2=C3)ccc1O)C(C)C` : NanoBRET Fold Response was 0.90

Record `O=C(CCc1ccc2n1[B-](F)(F)[N+]1=C(c3ccc[nH]3)C=CC1=C2)NCCOCCOCCNC(=O)OCCOCCN1CCN(C2=Nc3ccccc3Sc3ccccc32)CC1` . Reported NanoBRET Fold Response: 0.89

---

Exercise: state measured NanoBRET Fold Response for each of the compounds provided.
Molecular target: FZD8 (Homo sapiens, UniProt Q9H461)
Construct: purchased Promega (in-house HiBiT-GPCR construct library, NanoBRET)
Sequence (Q9H461 28-694): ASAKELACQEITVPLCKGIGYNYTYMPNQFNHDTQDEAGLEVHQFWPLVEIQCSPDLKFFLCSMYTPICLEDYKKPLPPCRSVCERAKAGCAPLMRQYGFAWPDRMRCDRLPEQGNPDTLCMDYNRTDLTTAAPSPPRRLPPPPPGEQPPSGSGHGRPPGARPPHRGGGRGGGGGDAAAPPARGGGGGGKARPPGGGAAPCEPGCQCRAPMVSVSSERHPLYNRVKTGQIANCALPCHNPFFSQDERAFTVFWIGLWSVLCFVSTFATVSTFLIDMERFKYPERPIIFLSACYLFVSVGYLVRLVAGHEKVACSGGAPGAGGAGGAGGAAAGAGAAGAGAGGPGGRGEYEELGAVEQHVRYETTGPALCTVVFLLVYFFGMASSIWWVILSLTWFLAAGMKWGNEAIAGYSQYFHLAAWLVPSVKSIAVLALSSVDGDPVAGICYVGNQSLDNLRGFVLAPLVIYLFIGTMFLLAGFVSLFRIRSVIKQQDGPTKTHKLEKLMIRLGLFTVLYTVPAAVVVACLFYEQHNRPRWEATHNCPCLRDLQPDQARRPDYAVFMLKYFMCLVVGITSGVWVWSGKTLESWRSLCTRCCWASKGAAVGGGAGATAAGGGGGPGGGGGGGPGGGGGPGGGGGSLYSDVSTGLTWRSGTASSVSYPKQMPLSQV
Assay: NanoBRET screen HiBiT-FZD8 in HEK293
Type: binding
Details: FZD8; tracer 0.1μM
Output: the number by itself.

Measured NanoBRET Fold Response, `O=C(CCc1ccc2n1[B-](F)(F)[N+]1=C(c3ccc[nH]3)C=CC1=C2)NCCOCCOCCNC(=O)OCCOCCN1CCN(C2=Nc3ccccc3Sc3ccccc32)CC1` : 1.02

# compound `N#CN=C(NCCCOc1cccc(CN2CCCCC2)c1)NCCNC(=O)CCOCCOCCOCCOCCNC(=O)CCc1ccc2n1[B-](F)(F)[N+]1=C(c3ccc[nH]3)C=CC1=C2` ; its NanoBRET Fold Response = 0.98

Documented NanoBRET Fold Response of `COc1ccccc1N1CCN(CCCCN2C(=O)c3ccc(CNC(=O)CCOCCNC(=O)c4ccc(CNC(=O)CCc5ccc6n5[B-](F)(F)[N+]5=C(c7ccc[nH]7)C=CC5=C6)cc4)cc3C2=O)CC1` : 1.20
